Settings: 328.15 K; 39620 kPa; Liquid; Vibrating tube method
measured property: mass density (kg/m3)

compound: Cc1ccccn1 [2-methylpyridine]
mass density (kg/m3): 940

compound: c1ccncc1 [pyridine]
mass density (kg/m3): 975.6

compound: Cc1ccncc1 [4-methylpyridine]
mass density (kg/m3): 949.1

compound: Cc1cccnc1 [3-methylpyridine]
mass density (kg/m3): 951.2

* * *

Details: 318.15 K; 10230 kPa; Liquid; Vibrating tube method
measured property: mass density (kg/m3)

chem smiles: Cc1cccnc1
unit annotation: kg/m3
mass density: 940.9
--
chem smiles: c1ccncc1
unit annotation: kg/m3
mass density: 965.2
--
chem smiles: Cc1ccccn1
unit annotation: kg/m3
mass density: 928.8
--
chem smiles: Cc1ccncc1
unit annotation: kg/m3
mass density: 938.9

* * *

Conditions: 298.15 K; 26450 kPa; Liquid; Vibrating tube method
measured property: mass density (kg/m3)

compound: c1ccncc1 [pyridine]
test value: 994.5
--
compound: Cc1ccccn1 [2-methylpyridine]
test value: 956.6
--
compound: Cc1cccnc1 [3-methylpyridine]
test value: 967.9
--
compound: Cc1ccncc1 [4-methylpyridine]
test value: 965.8

* * *

Conditions: 328.15 K; 28470 kPa; Liquid; Vibrating tube method
measured property: mass density (kg/m3)

chem smiles: Cc1cccnc1
test value: 944.4
--
chem smiles: Cc1ccccn1
test value: 932.7
--
chem smiles: Cc1ccncc1
test value: 942.3
--
chem smiles: c1ccncc1
test value: 968.3

* * *

Conditions: 318.15 K; 22390 kPa; Liquid; Vibrating tube method
measured property: mass density (kg/m3)

chem smiles: Cc1ccccn1
unit annotation: kg/m3
mass density: 937.1
--
chem smiles: Cc1ccncc1
unit annotation: kg/m3
mass density: 946.7
--
chem smiles: Cc1cccnc1
unit annotation: kg/m3
mass density: 948.8
--
chem smiles: c1ccncc1
unit annotation: kg/m3
mass density: 973.6

* * *

Conditions: 298.15 K; 4150 kPa; Liquid; Vibrating tube method
measured property: mass density (kg/m3)

compound: Cc1ccccn1 [2-methylpyridine]
test value: 942.5
//
compound: Cc1cccnc1 [3-methylpyridine]
test value: 954.5
//
compound: Cc1ccncc1 [4-methylpyridine]
test value: 952.5
//
compound: c1ccncc1 [pyridine]
test value: 980.4

* * *

Conditions: 328.15 K; 12260 kPa; Liquid; Vibrating tube method
measured property: mass density (kg/m3)

molecule: Cc1ccccn1 [2-methylpyridine]
unit annotation: kg/m3
mass density: 921.3

molecule: Cc1ccncc1 [4-methylpyridine]
unit annotation: kg/m3
mass density: 931.6

molecule: Cc1cccnc1 [3-methylpyridine]
unit annotation: kg/m3
mass density: 933.6

molecule: c1ccncc1 [pyridine]
unit annotation: kg/m3
mass density: 956.9

* * *

Conditions: 318.15 K; 38600 kPa; Liquid; Vibrating tube method
measured property: mass density (kg/m3)

molecule: Cc1ccccn1 [2-methylpyridine]
test value: 947.3
--
molecule: Cc1ccncc1 [4-methylpyridine]
test value: 956.4
--
molecule: Cc1cccnc1 [3-methylpyridine]
test value: 958.5
--
molecule: c1ccncc1 [pyridine]
test value: 983.8

* * *

Conditions: 328.15 K; 16310 kPa; Liquid; Vibrating tube method
measured property: mass density (kg/m3)

compound: Cc1cccnc1 [3-methylpyridine]
mass density / kg/m3: 936.4
//
compound: c1ccncc1 [pyridine]
mass density / kg/m3: 959.9
//
compound: Cc1ccccn1 [2-methylpyridine]
mass density / kg/m3: 924.3
//
compound: Cc1ccncc1 [4-methylpyridine]
mass density / kg/m3: 934.4

* * *

Settings: 298.15 K; 12260 kPa; Liquid; Vibrating tube method
measured property: mass density (kg/m3)

chem smiles: Cc1cccnc1
mass density, kg/m3: 959.6

chem smiles: Cc1ccncc1
mass density, kg/m3: 957.5

chem smiles: Cc1ccccn1
mass density, kg/m3: 947.9

chem smiles: c1ccncc1
mass density, kg/m3: 985.8

* * *

Details: 308.15 K; 36580 kPa; Liquid; Vibrating tube method
measured property: mass density (kg/m3)

chem smiles: Cc1ccccn1
mass density (kg/m3): 954.3
//
chem smiles: Cc1cccnc1
mass density (kg/m3): 965.4
//
chem smiles: Cc1ccncc1
mass density (kg/m3): 963.3
//
chem smiles: c1ccncc1
mass density (kg/m3): 991.5

* * *

Conditions: 298.15 K; 18340 kPa; Liquid; Vibrating tube method
measured property: mass density (kg/m3)

chem smiles: c1ccncc1
mass density / kg/m3: 989.6

chem smiles: Cc1ccccn1
mass density / kg/m3: 951.7

chem smiles: Cc1ccncc1
mass density / kg/m3: 961.2

chem smiles: Cc1cccnc1
mass density / kg/m3: 963.3

* * *

Settings: 308.15 K; 6180 kPa; Liquid; Vibrating tube method
measured property: mass density (kg/m3)

compound: c1ccncc1 [pyridine]
unit annotation: kg/m3
mass density: 972.1

compound: Cc1ccncc1 [4-methylpyridine]
unit annotation: kg/m3
mass density: 945

compound: Cc1ccccn1 [2-methylpyridine]
unit annotation: kg/m3
mass density: 935

compound: Cc1cccnc1 [3-methylpyridine]
unit annotation: kg/m3
mass density: 947.1

* * *

Conditions: 298.15 K; 39620 kPa; Liquid; Vibrating tube method
measured property: mass density (kg/m3)

chem smiles: c1ccncc1
unit annotation: kg/m3
test value: 1002
--
chem smiles: Cc1cccnc1
unit annotation: kg/m3
test value: 975
--
chem smiles: Cc1ccncc1
unit annotation: kg/m3
test value: 972.8
--
chem smiles: Cc1ccccn1
unit annotation: kg/m3
test value: 964

* * *

Details: 318.15 K; 28470 kPa; Liquid; Vibrating tube method
measured property: mass density (kg/m3)

molecule: c1ccncc1 [pyridine]
unit annotation: kg/m3
mass density: 977.6
//
molecule: Cc1ccccn1 [2-methylpyridine]
unit annotation: kg/m3
mass density: 941.1
//
molecule: Cc1cccnc1 [3-methylpyridine]
unit annotation: kg/m3
mass density: 952.6
//
molecule: Cc1ccncc1 [4-methylpyridine]
unit annotation: kg/m3
mass density: 950.5

* * *

Conditions: 328.15 K; 18340 kPa; Liquid; Vibrating tube method
measured property: mass density (kg/m3)

chem smiles: Cc1ccccn1
mass density, kg/m3: 925.7
--
chem smiles: Cc1cccnc1
mass density, kg/m3: 937.7
--
chem smiles: c1ccncc1
mass density, kg/m3: 961.3
--
chem smiles: Cc1ccncc1
mass density, kg/m3: 935.7

* * *

Details: 298.15 K; 36580 kPa; Liquid; Vibrating tube method
measured property: mass density (kg/m3)

compound: c1ccncc1 [pyridine]
test value: 1000.3
--
compound: Cc1cccnc1 [3-methylpyridine]
test value: 973.4
--
compound: Cc1ccncc1 [4-methylpyridine]
test value: 971.3
--
compound: Cc1ccccn1 [2-methylpyridine]
test value: 962.4

* * *

Conditions: 308.15 K; 22390 kPa; Liquid; Vibrating tube method
measured property: mass density (kg/m3)

chem smiles: Cc1cccnc1
unit annotation: kg/m3
mass density: 957.3
//
chem smiles: c1ccncc1
unit annotation: kg/m3
mass density: 982.8
//
chem smiles: Cc1ccncc1
unit annotation: kg/m3
mass density: 955.2
//
chem smiles: Cc1ccccn1
unit annotation: kg/m3
mass density: 945.8

* * *

Conditions: 328.15 K; 8210 kPa; Liquid; Vibrating tube method
measured property: mass density (kg/m3)

molecule: c1ccncc1 [pyridine]
unit annotation: kg/m3
mass density: 953.9

molecule: Cc1cccnc1 [3-methylpyridine]
unit annotation: kg/m3
mass density: 930.7

molecule: Cc1ccccn1 [2-methylpyridine]
unit annotation: kg/m3
mass density: 918.3

molecule: Cc1ccncc1 [4-methylpyridine]
unit annotation: kg/m3
mass density: 928.7

* * *

Settings: 328.15 K; 10230 kPa; Liquid; Vibrating tube method
measured property: mass density (kg/m3)

compound: Cc1cccnc1 [3-methylpyridine]
mass density (kg/m3): 932.2
--
compound: c1ccncc1 [pyridine]
mass density (kg/m3): 955.4
--
compound: Cc1ccncc1 [4-methylpyridine]
mass density (kg/m3): 930.2
--
compound: Cc1ccccn1 [2-methylpyridine]
mass density (kg/m3): 919.8

* * *

Details: 318.15 K; 29490 kPa; Liquid; Vibrating tube method
measured property: mass density (kg/m3)

chem smiles: Cc1cccnc1
measured property: mass density
test value: 953.2
//
chem smiles: c1ccncc1
measured property: mass density
test value: 978.2
//
chem smiles: Cc1ccncc1
measured property: mass density
test value: 951.1
//
chem smiles: Cc1ccccn1
measured property: mass density
test value: 941.7

* * *

Settings: 328.15 K; 26450 kPa; Liquid; Vibrating tube method
measured property: mass density (kg/m3)

chem smiles: Cc1ccccn1
mass density [kg/m3]: 931.4
--
chem smiles: Cc1ccncc1
mass density [kg/m3]: 941.1
--
chem smiles: c1ccncc1
mass density [kg/m3]: 967
--
chem smiles: Cc1cccnc1
mass density [kg/m3]: 943.1

* * *

Conditions: 328.15 K; 36580 kPa; Liquid; Vibrating tube method
measured property: mass density (kg/m3)

chem smiles: c1ccncc1
measured property: mass density
test value: 973.6
//
chem smiles: Cc1cccnc1
measured property: mass density
test value: 949.4
//
chem smiles: Cc1ccccn1
measured property: mass density
test value: 938
//
chem smiles: Cc1ccncc1
measured property: mass density
test value: 947.3
